# experimentalSystem: alpha-1-receptor (Rattus norvegicus, UniProt P15823)
# Construct: rat liver homogenates; from tissue; host or cells: rat liver homogenate
# Sequence (P15823 whole entry): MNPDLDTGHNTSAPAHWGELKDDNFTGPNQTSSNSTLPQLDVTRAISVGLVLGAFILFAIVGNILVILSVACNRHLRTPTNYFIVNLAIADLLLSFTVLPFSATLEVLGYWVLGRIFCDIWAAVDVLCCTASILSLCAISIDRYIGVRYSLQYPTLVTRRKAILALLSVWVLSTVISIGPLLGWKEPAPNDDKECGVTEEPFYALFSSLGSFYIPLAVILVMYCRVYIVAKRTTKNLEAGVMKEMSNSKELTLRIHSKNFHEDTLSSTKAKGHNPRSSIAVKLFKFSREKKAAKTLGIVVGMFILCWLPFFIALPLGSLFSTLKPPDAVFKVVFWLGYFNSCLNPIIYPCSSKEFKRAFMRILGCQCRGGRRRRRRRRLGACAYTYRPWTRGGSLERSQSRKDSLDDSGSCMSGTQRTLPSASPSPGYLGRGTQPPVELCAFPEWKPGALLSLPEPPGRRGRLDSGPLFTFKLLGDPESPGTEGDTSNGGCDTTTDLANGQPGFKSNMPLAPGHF
# experimentalDetails: radioligand binding, [3H]-prazosin, rat liver homogenates
Counter-ions that a name gives are not always drawn.
reportedProperty: Ki (nM)

Solved entries:
{"molecule": "COc1ccc2c(c1OC)SCCC2CN(C)CCc1cccs1 (stereo not shown) [Example 13, hydrochloride]", "Ki, nM": 96}
{"molecule": "COc1ccc2c(c1)OCCC2CN(C)CCc1cccs1 (stereo not shown) [Example 7, hydrochloride]", "Ki, nM": 590}
{"molecule": "CCN(CCc1cccs1)CC1CCOc2c1ccc(OC)c2C (stereo not shown) [Example 28, hydrochloride]", "Ki, nM": 1000}

P. CCN(CCc1cccc(Cl)c1)CC1CCOc2cc(OC)ccc21 (stereo not shown) [Example 6, hydrochloride]
Q. COc1ccc2c(c1)OCCC2CN(C)CCc1cccc(Cl)c1 (stereo not shown) [Example 4, hydrochloride]
R. COc1ccc2c(c1OC)OCCC2CN(C)CCc1cccs1 (stereo not shown) [Example 26, hydrochloride]
S. COc1ccc2c(c1OC)OCCC2CN(C)CCc1cccc(F)c1 (stereo not shown) [Example 25, hydrochloride]
// ranking: key=Ki, reverse=True In your reply, arrange the labels in the requested order.
R, P, S, Q
(R: 10000 nM, P: 1140 nM, S: 550 nM, Q: 260 nM)

* * *

# experimentalSystem: alpha-2-receptor
# experimentalDetails: radioligand binding, [3H]-rauwolscine, rat cerebral cortices
# conditionLabel: rat cerebral cortices, [3H]-rauwolscine
# Procedure: The compounds were assessed for alpha-adrenergic receptor subtype selectivity by use of radioligand binding techniques as described previously (DeBernardis et.al. J. Med. Chem. 28 1398 (1985)). Affinity for the alpha-1-receptor was assessed using rat liver homogenates and the radioligand [^3 H]-prazosin; whereas for the alpha-2-receptor, rat cerebral cortices and the radioligand [^3 H]-rauwolscine were utilized. […]
pKi: −log10 of the molar value. Where a name gives a salt, the structure may show the parent alone.
reportedProperty: pKi

Example entries and their recorded answers appear below.
{"compound": "COc1ccc2c(c1)OCCC2CN(C)CCc1cccc(Cl)c1 (stereo not shown) [Example 4, hydrochloride]", "pKi": 7.62}
{"compound": "COc1ccc2c(c1OC)OCCC2CN(C)CCc1cccc(F)c1 (stereo not shown) [Example 25, hydrochloride]", "pKi": 8.52}
{"compound": "COc1ccc2c(c1OC)OCCC2CN(C)CCc1cccs1 (stereo not shown) [Example 26, hydrochloride]", "pKi": 8.24}
{"compound": "COc1ccc2c(c1)OCCC2CN(C)CCc1cccs1 (stereo not shown) [Example 7, hydrochloride]", "pKi": 8.00}
{"compound": "CCN(CCc1cccc(Cl)c1)CC1CCOc2cc(OC)ccc21 (stereo not shown) [Example 6, hydrochloride]", "pKi": 7.47}

a. COc1ccc2c(c1OC)SCCC2CN(C)CCc1cccs1 (stereo not shown) [Example 13, hydrochloride]
b. CCN(CCc1cccs1)CC1CCOc2c1ccc(OC)c2C (stereo not shown) [Example 28, hydrochloride]
Identify the entry with the smaller pKi: a or b . Answer with the label corresponding to your selection.
b
